- SYSTEM UNDER TEST: MAPK14 (human) (UniProt Q16539)
- Sequence (Q16539 whole entry, looked up): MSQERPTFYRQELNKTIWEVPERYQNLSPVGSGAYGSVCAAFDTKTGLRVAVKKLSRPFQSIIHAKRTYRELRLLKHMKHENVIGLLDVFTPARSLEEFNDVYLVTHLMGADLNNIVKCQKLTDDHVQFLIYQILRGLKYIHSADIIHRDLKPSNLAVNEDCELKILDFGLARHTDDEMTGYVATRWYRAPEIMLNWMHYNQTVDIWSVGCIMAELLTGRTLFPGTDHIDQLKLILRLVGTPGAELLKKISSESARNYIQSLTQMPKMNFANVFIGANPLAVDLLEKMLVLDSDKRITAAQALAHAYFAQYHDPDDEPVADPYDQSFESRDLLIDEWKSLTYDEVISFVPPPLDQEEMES
- METHOD: Inhibition of TNF Production (PBMC)
pIC50: −log10 of the molar value.
I would appreciate it if you labelled entries Satisfied when pIC50 is 6 or higher, otherwise Not satisfied.

Reference set, count: 5
* Cc1cccc(-n2nc(C)cc2-c2ccnc(N)c2)c1 | Satisfied
* Cc1cccc(-n2nc(C)cc2-c2ccnc(OCc3ccccc3)c2)c1 | Not satisfied
* Cc1cccc(-n2nc(C)cc2-c2ccnc(NCc3ccccc3)c2)c1 | Satisfied
* Cc1cc(-c2ccnc(NCc3cccnc3)c2)n(-c2cccc(F)c2)n1 | Satisfied
* Cc1cccc(-n2ncc(C)c2-c2ccncc2)c1 | Satisfied

Exercise: Check if pIC50 >= 6 (inclusive). Item: Cc1cc(-c2ccnc(NCCO)c2)n(-c2ccc(Cl)cc2)n1
Key: Satisfied

Exercise: Now give it for Cc1cccc(-n2nc(C)cc2-c2ccnc(C#N)c2)c1 too.
Key: Not satisfied

Exercise: Now give it for Cc1cc(-c2ccnc(C#N)c2)n(-c2ccc(F)cc2)n1 too.
Key: Not satisfied

Exercise: Now give it for Cc1cccc(-n2nc(C)cc2-c2cc[nH]c(=O)c2)c1 too.
Key: Not satisfied

Exercise: Now give it for Cc1cccc(-n2nc(C)cc2-c2ccnc(N(C)Cc3ccccc3)c2)c1 too.
Key: Not satisfied

Exercise: Now give it for Cc1cnn(-c2cccc(F)c2)c1-c1ccncc1 too.
Key: Not satisfied

Attribution: the Kinase Knowledgebase extract (Sharma et al. 2016)
